Activity values by entry
# System: Rattus norvegicus
# EXPERIMENT: Gastrointestinal toxicity in Wistar albino rat assessed as ulceration at 100 mg/kg/day, po administered twice daily for 3 days
# Format: organism-based
# Parameters: route oral
# MEASUREMENT_SETUP: in vivo, 72 h

| MOLECULE | Activity |
| --- | --- |
| Cc1ccc(-c2cc(C(F)(F)F)nn2-c2ccc(S(N)(=O)=O)cc2)cc1 [CELECOXIB] | 0% |
| COc1ccc2c(c1)c(CC(=O)O)c(C)n2C(=O)c1ccc(Cl)cc1 [INDOMETHACIN] | 100% |
| O=C1NC(=O)/C(=C/c2cn(-c3ccc([N+](=O)[O-])cc3)nc2-c2ccc(Cl)cc2)S1 | 0% |
| C=CCN1C(=O)S/C(=C\c2cn(-c3ccccc3)nc2-c2ccc(Cl)cc2)C1=O | 0% |

###

# Test system: Rattus norvegicus
# EXPERIMENT: Antiinflammatory activity in Wistar albino rat acute inflammatory model assessed as inhibition of formalin-induced paw edema at 20 mg/kg, po administered 1 hr before formalin challenge measured after 2 hrs by plethysmometer relative to control
# Assay type: functional
# Design: scale not given: the % may be the effect or the level left
Listed below: Activity values for each entry.

| ENTRY_SMILES | TARGET_OF_ASSAY | Activity [%] |
| --- | --- | --- |
| Cc1ccc(-c2cc(C(F)(F)F)nn2-c2ccc(S(N)(=O)=O)cc2)cc1 | Rattus norvegicus | 50 |
| O=C1NC(=O)/C(=C/c2cn(-c3ccc([N+](=O)[O-])cc3)nc2-c2ccc(Cl)cc2)S1 | Rattus norvegicus | 46 |
| C=CCN1C(=O)S/C(=C\c2cn(-c3ccccc3)nc2-c2ccc(Cl)cc2)C1=O | Rattus norvegicus | 63 |
| O=C1NC(=O)/C(=C/c2cn(-c3ccccc3)nc2-c2ccccc2)S1 | Rattus norvegicus | 38 |
| O=C1NC(=O)/C(=C/c2cn(-c3ccccc3)nc2-c2ccc(Cl)cc2)S1 | Rattus norvegicus | 50 |

###

# System: SH-SY5Y
# EXPERIMENT: Antineurotoxicity in human SH-SY5Y cells assessed as inhibition human THP1 cell supernatant-induced cytotoxicity compound pretreated 24 to 48 hrs to THP1 cells measured after 72 hrs of supernatant addition
# Assay type: functional, cell-based
// reported IC50 per item

| ENTRY_SMILES | TARGET_OF_ASSAY | UNITS | IC50 |
| --- | --- | --- | --- |
| Cc1ccc(-c2cc(C(F)(F)F)nn2-c2ccc(S(N)(=O)=O)cc2)cc1 | SH-SY5Y | µM | 5 |
| O=C1S/C(=C\c2cn(-c3ccccc3)nc2-c2ccc(Cl)cc2)C(=O)N1Cc1ccccc1 | SH-SY5Y | µM | 8 |
| C=CCN1C(=O)S/C(=C\c2cn(-c3ccccc3)nc2-c2ccccc2)C1=O | SH-SY5Y | µM | 50 |
| C=CCN1C(=O)S/C(=C\c2cn(-c3ccccc3)nc2-c2ccc(Cl)cc2)C1=O | SH-SY5Y | µM | 10 |
| O=C1S/C(=C\c2cn(-c3ccccc3)nc2-c2ccc(Cl)cc2)C(=O)N1Cc1cccc(Br)c1 | SH-SY5Y | µM | 8 |
| O=C1NC(=O)/C(=C/c2cn(-c3ccc([N+](=O)[O-])cc3)nc2-c2ccc(Cl)cc2)S1 | SH-SY5Y | µM | 2 |
| O=C1S/C(=C\c2cn(-c3ccccc3)nc2-c2ccccc2)C(=O)N1Cc1ccc(Cl)cc1 | SH-SY5Y | µM | 80 |
